Sourced from ChEMBL document CHEMBL1146200

tested on: Enterococcus faecalis; assay: Antimicrobial activity against vancomycin-resistant Enterococcus faecalis ATCC 51299; type: functional; conditions: Enterococcus faecalis, ATCC 51299
Non-standard residues stand in square brackets, D forms with d. Residues, ends and D or L forms follow the SMILES beside them. Phg = N[C@H](C(=O)O)c1ccccc1
Here the recorded MIC90 is given for each entry.
assay readout: MIC90 (µg/mL)

# compound, test target, assay value
data = [
    ("CC[C@H](C)[C@H](NC(=O)[C@H](CCCCN)NC(=O)[C@H](CCCCN)NC(=O)[C@@H](NC(=O)[C@@H](NC(=O)[C@H](CC(=O)O)NC(=O)[C@H](Cc1ccccc1)NC(=O)[C@H](CC(C)C)NC(=O)CN)[C@@H](C)CC)[C@@H](C)CC)C(=O)N[C@@H](C)C(=O)N[C@@H](CCC(=O)O)C(=O)N[C@@H](CO)C(=O)N[C@H](C(N)=O)c1ccccc1 (H-GLFDIIKKIAES[Phg]-NH2)", "Enterococcus faecalis", 16),
    ("CC(=O)NC[C@H]1CN(c2ccc(N3CCOCC3)c(F)c2)C(=O)O1", "Enterococcus faecalis", 2),
]

----------
tested on: Staphylococcus aureus; assay: Antimicrobial activity against […] Staphylococcus aureus ATCC 29213; assay type: functional
Non-standard residues stand in square brackets, D forms with d. Residues, ends and D or L forms follow the SMILES beside them. Phg = N[C@H](C(=O)O)c1ccccc1
assay readout: MBC50 (µg/mL)

# compound, assay readout, assay value
data = [
    ("CN[C@H](CC(C)C)C(=O)N[C@H]1C(=O)N[C@@H](CC(N)=O)C(=O)N[C@H]2C(=O)N[C@H]3C(=O)N[C@H](C(=O)N[C@H](C(=O)O)c4cc(O)cc(O)c4-c4cc3ccc4O)[C@H](O)c3ccc(c(Cl)c3)Oc3cc2cc(c3O[C@@H]2O[C@H](CO)[C@@H](O)[C@H](O)[C@H]2O[C@H]2C[C@](C)(N)[C@H](O)[C@H](C)O2)Oc2ccc(cc2Cl)[C@H]1O", "MBC50", 1),
    ("CC[C@H]1OC(=O)[C@H](C)[C@@H](O[C@H]2C[C@@](C)(OC)[C@@H](O)[C@H](C)O2)[C@H](C)[C@@H](O[C@@H]2O[C@H](C)C[C@H](N(C)C)[C@H]2O)[C@](C)(OC)C[C@@H](C)C(=O)[C@H](C)[C@@H](O)[C@]1(C)O", "MBC50", 32),
    ("C[C@@H](O)[C@H]1C(=O)N2C(C(=O)O)=C(SCCNC=N)C[C@H]12 [IMIPENEM ANHYDROUS]", "MBC50", 64),
    ("CC[C@H](C)[C@H](NC(=O)[C@H](CCCCN)NC(=O)[C@H](CCCCN)NC(=O)[C@@H](NC(=O)[C@@H](NC(=O)[C@H](CC(=O)O)NC(=O)[C@H](Cc1ccccc1)NC(=O)[C@H](CC(C)C)NC(=O)CN)[C@@H](C)CC)[C@@H](C)CC)C(=O)N[C@@H](C)C(=O)N[C@@H](CCC(=O)O)C(=O)N[C@@H](CO)C(=O)N[C@H](C(N)=O)c1ccccc1 (H-GLFDIIKKIAES[Phg]-NH2)", "MBC50", 8),
]

----------
test system: Enterococcus faecalis; test: Antimicrobial activity against vancomycin-susceptible Enterococcus faecalis ATCC 29212; type: functional; settings: Enterococcus faecalis, ATCC 29212
Non-standard residues stand in square brackets, D forms with d. Residues, ends and D or L forms follow the SMILES beside them. Phg = N[C@H](C(=O)O)c1ccccc1
Here the recorded MIC90 is given for each entry.

# compound, test target, MIC90 [µg/mL]
measured = [
    ("CC[C@H]1OC(=O)[C@H](C)[C@@H](O[C@H]2C[C@@](C)(OC)[C@@H](O)[C@H](C)O2)[C@H](C)[C@@H](O[C@@H]2O[C@H](C)C[C@H](N(C)C)[C@H]2O)[C@](C)(OC)C[C@@H](C)C(=O)[C@H](C)[C@@H](O)[C@]1(C)O [CLARITHROMYCIN]", "Enterococcus faecalis", 32),
    ("CC(=O)NC[C@H]1CN(c2ccc(N3CCOCC3)c(F)c2)C(=O)O1 [LINEZOLID]", "Enterococcus faecalis", 2),
    ("CN[C@H](CC(C)C)C(=O)N[C@H]1C(=O)N[C@@H](CC(N)=O)C(=O)N[C@H]2C(=O)N[C@H]3C(=O)N[C@H](C(=O)N[C@H](C(=O)O)c4cc(O)cc(O)c4-c4cc3ccc4O)[C@H](O)c3ccc(c(Cl)c3)Oc3cc2cc(c3O[C@@H]2O[C@H](CO)[C@@H](O)[C@H](O)[C@H]2O[C@H]2C[C@](C)(N)[C@H](O)[C@H](C)O2)Oc2ccc(cc2Cl)[C@H]1O [VANCOMYCIN]", "Enterococcus faecalis", 2),
    ("CN(C)c1ccc(O)c2c1C[C@H]1C[C@H]3[C@H](N(C)C)C(O)=C(C(N)=O)C(=O)[C@@]3(O)C(O)=C1C2=O [MINOCYCLINE]", "Enterococcus faecalis", 16),
    ("C[C@@H](O)[C@H]1C(=O)N2C(C(=O)O)=C(SCCNC=N)C[C@H]12 [IMIPENEM ANHYDROUS]", "Enterococcus faecalis", 16),
    ("CC[C@H](C)[C@H](NC(=O)[C@H](CCCCN)NC(=O)[C@H](CCCCN)NC(=O)[C@@H](NC(=O)[C@@H](NC(=O)[C@H](CC(=O)O)NC(=O)[C@H](Cc1ccccc1)NC(=O)[C@H](CC(C)C)NC(=O)CN)[C@@H](C)CC)[C@@H](C)CC)C(=O)N[C@@H](C)C(=O)N[C@@H](CCC(=O)O)C(=O)N[C@@H](CO)C(=O)N[C@H](C(N)=O)c1ccccc1 (H-GLFDIIKKIAES[Phg]-NH2)", "Enterococcus faecalis", 16),
]

----------
test system: Enterococcus faecalis; test: Antimicrobial activity against vancomycin-resistant Enterococcus faecalis ATCC 51299; assay type: functional; settings: Enterococcus faecalis, ATCC 51299
assay readout: MIC90 (µg/mL)

# compound, assay value
rows = [
    ("CC[C@H]1OC(=O)[C@H](C)[C@@H](O[C@H]2C[C@@](C)(OC)[C@@H](O)[C@H](C)O2)[C@H](C)[C@@H](O[C@@H]2O[C@H](C)C[C@H](N(C)C)[C@H]2O)[C@](C)(OC)C[C@@H](C)C(=O)[C@H](C)[C@@H](O)[C@]1(C)O", 64),
    ("CN[C@H](CC(C)C)C(=O)N[C@H]1C(=O)N[C@@H](CC(N)=O)C(=O)N[C@H]2C(=O)N[C@H]3C(=O)N[C@H](C(=O)N[C@H](C(=O)O)c4cc(O)cc(O)c4-c4cc3ccc4O)[C@H](O)c3ccc(c(Cl)c3)Oc3cc2cc(c3O[C@@H]2O[C@H](CO)[C@@H](O)[C@H](O)[C@H]2O[C@H]2C[C@](C)(N)[C@H](O)[C@H](C)O2)Oc2ccc(cc2Cl)[C@H]1O", 64),
    ("C[C@@H](O)[C@H]1C(=O)N2C(C(=O)O)=C(SCCNC=N)C[C@H]12 [IMIPENEM ANHYDROUS]", 32),
    ("CN(C)c1ccc(O)c2c1C[C@H]1C[C@H]3[C@H](N(C)C)C(O)=C(C(N)=O)C(=O)[C@@]3(O)C(O)=C1C2=O", 32),
]

----------
Here the recorded MBC50 is given for each entry.
tested on: Streptococcus pyogenes; assay: Antimicrobial activity against Streptococcus pyogenes ATCC 19615; assay type: functional

# compound, MBC50 / µg/mL
measured = [
    ("CC[C@H]1OC(=O)[C@H](C)[C@@H](O[C@H]2C[C@@](C)(OC)[C@@H](O)[C@H](C)O2)[C@H](C)[C@@H](O[C@@H]2O[C@H](C)C[C@H](N(C)C)[C@H]2O)[C@](C)(OC)C[C@@H](C)C(=O)[C@H](C)[C@@H](O)[C@]1(C)O [CLARITHROMYCIN]", 8),
    ("CC(=O)NC[C@H]1CN(c2ccc(N3CCOCC3)c(F)c2)C(=O)O1 [LINEZOLID]", 1),
    ("CN(C)c1ccc(O)c2c1C[C@H]1C[C@H]3[C@H](N(C)C)C(O)=C(C(N)=O)C(=O)[C@@]3(O)C(O)=C1C2=O [MINOCYCLINE]", 8),
    ("CN[C@H](CC(C)C)C(=O)N[C@H]1C(=O)N[C@@H](CC(N)=O)C(=O)N[C@H]2C(=O)N[C@H]3C(=O)N[C@H](C(=O)N[C@H](C(=O)O)c4cc(O)cc(O)c4-c4cc3ccc4O)[C@H](O)c3ccc(c(Cl)c3)Oc3cc2cc(c3O[C@@H]2O[C@H](CO)[C@@H](O)[C@H](O)[C@H]2O[C@H]2C[C@](C)(N)[C@H](O)[C@H](C)O2)Oc2ccc(cc2Cl)[C@H]1O [VANCOMYCIN]", 1),
]
